The reported numbers originate from the supplement of paper PMC5908809.

Assignment: determine reported percent inhibition of viability for the given compounds.
Tested on: normal primary NK cells, pool 3 (3 donors) (IL-2 2.5 ng/mL);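 note: normalised to DMSO-only wells as negative and benzethonium chloride as positive control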
protocol_description: percent inhibition of viability; higher = more inhibition
experimental_conditions: 72 h; 0.1 nM
Give bare numbers, in %.

Take a look at these entries with their results.
| compound | target_under_test | display_unit | percent inhibition of viability |
| --- | --- | --- | --- |
| CNC(=O)c1ccc(-c2cnc3ncc(Cc4ccc5ncccc5c4)n3n2)cc1F [NVP-INC280] (max concentration tested 1000 nM) | normal primary NK cells, pool 3 (3 donors) (IL-2 2.5 ng/mL) | % | -4.63 |
| C=CC(=O)N1CCC[C@@H](n2nc(-c3ccc(Oc4ccccc4)cc3)c3c(N)ncnc32)C1 [Ibrutinib] (max concentration tested 1000 nM) | normal primary NK cells, pool 3 (3 donors) (IL-2 2.5 ng/mL) | % | -5.07 |
| Oc1ccc2c(c1)CC[C@H](c1ccccc1)[C@@H]2c1ccc(OCCN2CCCC2)cc1 [Lasofoxifene] (max concentration tested 1000 nM) | normal primary NK cells, pool 3 (3 donors) (IL-2 2.5 ng/mL) | % | -15.8 |

Consider the record given below.
(Q) So what's the measured percent inhibition of viability for this one? Cc1ccc(F)c(NC(=O)Nc2ccc(-c3cccc4[nH]nc(N)c34)cc2)c1 [Linifanib] (max concentration tested 1000 nM)
(A) -14.8
